Origin of values: patent EP1140925B1

Entries and their Ki
# system_tested: serotonin transporter (Rattus norvegicus, UniProt P31652)
# Construct: frontal cortical membranes prepared from male Sprague-Dawley rats; from tissue; host or cells: frontal cortex membranes of male Sprague-Dawley rats
# Sequence (P31652 whole entry): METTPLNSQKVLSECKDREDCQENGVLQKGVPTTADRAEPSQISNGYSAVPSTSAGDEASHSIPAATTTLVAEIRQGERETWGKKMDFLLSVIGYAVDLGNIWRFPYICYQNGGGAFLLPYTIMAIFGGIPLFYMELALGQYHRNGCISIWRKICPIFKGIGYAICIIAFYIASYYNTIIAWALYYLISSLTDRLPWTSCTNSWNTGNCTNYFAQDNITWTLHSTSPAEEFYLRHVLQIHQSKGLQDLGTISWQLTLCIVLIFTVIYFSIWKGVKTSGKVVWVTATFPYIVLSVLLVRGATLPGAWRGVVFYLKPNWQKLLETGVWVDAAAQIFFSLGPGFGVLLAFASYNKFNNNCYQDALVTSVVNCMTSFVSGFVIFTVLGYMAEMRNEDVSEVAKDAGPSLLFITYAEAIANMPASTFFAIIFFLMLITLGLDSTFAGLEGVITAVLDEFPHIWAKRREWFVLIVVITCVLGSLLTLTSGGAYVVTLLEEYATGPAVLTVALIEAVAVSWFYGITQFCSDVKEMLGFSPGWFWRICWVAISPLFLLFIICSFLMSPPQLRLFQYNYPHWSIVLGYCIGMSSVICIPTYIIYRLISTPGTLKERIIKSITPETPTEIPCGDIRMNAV
# experiment_notes: Serotonin transporter affinity, 3H-paroxetine binding to frontal cortical membranes
# Parameters: species or system Sprague-Dawley rats
# measurement_parameters: ST (Ki, nM, % Inh. @.1 µM), 3H-paroxetine 0.1 nM, head also allows % Inh. @.1 µM
Answer in nM, number only, no unit symbol.

Worked examples, 4 compounds total:
• CC(C)CN1CC(CNCCCc2c[nH]c3ccc(F)cc23)Oc2ccccc21 (centres unmarked) [Example 10] = 85
• Fc1ccc2[nH]cc(CCCNCC3CN(c4ccccc4)c4ccccc4O3)c2c1 (single isomer, unassigned; (-)) [Example 18] = 34
• Fc1ccc2[nH]cc(CCCNCC3CN(c4ccccc4)c4ccccc4O3)c2c1 (single isomer, unassigned; (+)) [Example 19] = 40
• CN1CC(CNCCCc2c[nH]c3ccccc23)Oc2ccccc21 (centres unmarked) [Example 2] = 112

The reported Ki value, serotonin transporter (Rattus norvegicus, UniProt P31652), for c1ccc(CN2CC(CNCCCc3c[nH]c4ccccc34)Oc3ccccc32)cc1 (centres unmarked) [Example 3] reads 21

###

Listing: Ki of selected compounds
# system_tested: serotonin transporter (Rattus norvegicus)
# Construct: frontal cortical membranes prepared from male Sprague-Dawley rats; from tissue; host or cells: frontal cortex membranes of male Sprague-Dawley rats
# experiment_notes: Serotonin transporter affinity, 3H-paroxetine binding to frontal cortical membranes
# Design: species or system Sprague-Dawley rats
# measurement_parameters: 3H-paroxetine 0.1 nM, head also allows % Inh. @.1 µM, read-out: ST (Ki, nM, % Inh. @.1 µM)
Return type: number; implicit unit nM.

• CCN1CC(CNCCCc2c[nH]c3ccc(F)cc23)Oc2ccccc21 (stereo not shown) = 15
• CN1CC(CNCCCc2c[nH]c3ccc(F)cc23)Oc2ccccc21 (stereo not shown) = 5.7

So for COc1ccc2c(c1)OC(CNCCCc1c[nH]c3ccc(F)cc13)CN2 (stereo not shown) , the logged Ki turned out to be 15

Please fill in: Ki reported for CC(C)N1CC(CNCCCc2c[nH]c3ccc(F)cc23)Oc2ccccc21 (stereo not shown) = 25

Input Fc1ccc2[nH]cc(CCCNCC3CN(c4ccccc4)c4ccccc4O3)c2c1 (stereo not shown) . Output Ki: 43

// Fc1ccc2[nH]cc(CCCNCC3CNc4ccccc4O3)c2c1 (stereo not shown) : Ki value = 16

Documented Ki of c1ccc2c(c1)NCC(CNCCCc1c[nH]c3ccccc13)O2 (stereo not shown) : 79
